Source listed as patent US20240067734A1.

Listed below: kon values for each entry.
molecular target: T1, di huNKG2D ECD Fc avi (human, biotinylated at the avi-tag); assay: SPR Biacore; IgG captured by anti-Fab, antigen analyte
T1 construct: Dimeric fusion of human NKG2D ECD to the C-terminus of an avi-tagged human IgG1 Fc
T1 sequence (chain, as listed by the source limits assumed): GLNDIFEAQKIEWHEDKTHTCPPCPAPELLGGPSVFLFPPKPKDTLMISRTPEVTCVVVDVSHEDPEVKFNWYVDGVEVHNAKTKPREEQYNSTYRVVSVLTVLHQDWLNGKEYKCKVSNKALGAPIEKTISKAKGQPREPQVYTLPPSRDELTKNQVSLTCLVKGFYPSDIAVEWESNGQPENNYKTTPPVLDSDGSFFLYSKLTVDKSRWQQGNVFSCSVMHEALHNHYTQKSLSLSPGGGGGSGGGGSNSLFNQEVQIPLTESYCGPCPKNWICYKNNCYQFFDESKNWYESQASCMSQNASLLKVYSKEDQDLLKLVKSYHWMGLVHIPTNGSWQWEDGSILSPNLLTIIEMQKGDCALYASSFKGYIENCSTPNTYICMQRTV
Lab book: enter the figure in M⁻¹ s⁻¹, no units written.

// worked examples, kon included
>  <BINDER>
anti-NKG2D antibody clone 320 (antibody, V domains shown, From transgenic rabbits; also called 320 IgG) VH: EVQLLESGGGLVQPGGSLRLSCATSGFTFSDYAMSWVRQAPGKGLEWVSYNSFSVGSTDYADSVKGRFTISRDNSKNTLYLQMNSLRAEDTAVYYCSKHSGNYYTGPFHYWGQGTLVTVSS VL: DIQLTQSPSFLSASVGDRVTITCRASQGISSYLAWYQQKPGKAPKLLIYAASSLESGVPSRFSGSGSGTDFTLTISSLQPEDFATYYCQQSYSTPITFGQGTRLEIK

>  <ASSAY VALUE>
83000

$$$$
>  <BINDER>
anti-NKG2D antibody clone 296 (antibody, V domains shown, From transgenic rabbits) VH: EVQLLESGGGLVQPGGSLRLSCAASGFTFSSYAMSWVRQAPGKGLEWVSAIGIGGGGTYYADSVKGRFTISRDNSKNTLYLQMNSLRAEDTAVYHCAKGASFDFINFFPYWGQGTLVTVSS VL: DIQMTQSPSSLSASVGDRVTITCRASQGISNDLAWYQQKPGKAPKLLIYAASSLQSGVPSRFSGSGSGTDFTLTISSLQPEDFATYYCQQTYSTPLTFGGGTKVEIK

>  <ASSAY VALUE>
210000

$$$$

Proceed to the following item.
For this binder ( anti-NKG2D antibody clone 001 (antibody, V domains shown, From transgenic rabbits) VH: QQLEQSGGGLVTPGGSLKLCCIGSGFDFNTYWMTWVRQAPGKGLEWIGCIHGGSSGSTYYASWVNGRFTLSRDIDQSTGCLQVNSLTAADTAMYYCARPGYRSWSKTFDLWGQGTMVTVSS VL: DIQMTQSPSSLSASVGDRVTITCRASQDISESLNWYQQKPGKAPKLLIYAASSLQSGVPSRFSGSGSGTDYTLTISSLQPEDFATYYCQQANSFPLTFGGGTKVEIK ), measured kon is 52000
